# EXPERIMENTAL TARGET: T1, ECF34_1384
# T1 chain: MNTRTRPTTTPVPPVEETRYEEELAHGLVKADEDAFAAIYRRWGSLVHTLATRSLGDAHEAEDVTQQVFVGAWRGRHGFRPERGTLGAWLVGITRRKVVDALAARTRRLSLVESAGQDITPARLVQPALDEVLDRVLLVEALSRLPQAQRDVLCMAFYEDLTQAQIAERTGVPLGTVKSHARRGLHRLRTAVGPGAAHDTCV
ASSAY READOUT: fold repression
Simply state the number, no unit and no words.

Examples with their reported fold repression follow.
[
  {
    "BINDER": "AS25_1643_cl43 (protein) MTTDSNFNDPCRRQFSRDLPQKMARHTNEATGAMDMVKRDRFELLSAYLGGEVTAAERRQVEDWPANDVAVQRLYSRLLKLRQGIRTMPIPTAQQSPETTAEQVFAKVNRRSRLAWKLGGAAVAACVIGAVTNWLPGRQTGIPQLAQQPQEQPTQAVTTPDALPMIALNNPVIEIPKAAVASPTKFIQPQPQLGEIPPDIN",
    "fold repression": 2.43
  },
  {
    "BINDER": "AS22_1147 (protein) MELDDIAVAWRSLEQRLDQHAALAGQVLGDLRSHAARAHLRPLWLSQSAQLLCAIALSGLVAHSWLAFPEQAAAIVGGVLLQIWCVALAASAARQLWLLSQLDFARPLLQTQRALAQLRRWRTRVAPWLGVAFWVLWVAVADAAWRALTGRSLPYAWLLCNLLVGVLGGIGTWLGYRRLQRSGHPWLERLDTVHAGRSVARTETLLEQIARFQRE",
    "fold repression": 2.09
  }
]

# context switch: different binder, same fold repression
Value lookup for fold repression; key = AS15_524 (protein) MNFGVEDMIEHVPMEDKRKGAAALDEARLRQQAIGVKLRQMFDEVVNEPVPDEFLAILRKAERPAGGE
5.15

Hello, the source for this data is paper PMC3817407, in case you need it.
